Assign Kd to each entry below.
# Tested Target: T1, SARS-CoV-2 NTD (1-290) (SARS-CoV-2, UniProt P0DTC2 14-290)
# T1 construct: range 1-290
# Assay: BLI, 1:1 model

Binder	Kd
COV_2025 (antibody, V domains shown, human IgG1) VH: QVHLVQSGAEVKKPGASVKVSCKVSGYTLVELSVHWVRQAPAKGLEWIGGFDPEDGETIYAQKFQGRVTMTEDTSTDTAYMELTNLRSEDTAVYYCVTSQPFVSPNWFDPWGQGTLVTVSS VL: QSALTQPASVSGSPGQSITISCTGTSRDVGAYNYVSWYQQHPGKAPKLMIYEVTTRPSGVSNRFSGSKSGNTASLTISGLQAEDEADYYCSSYTGSRTLVFGTGTKVTVL	< 1 pM

Could you now look at the following binder, please?
Exercise: State its Kd for this binder: COV_2039 (antibody, V domains shown, human IgG1) VH: QVQLVQSGAEVKKPGASVKVSCKVSGYMLIELSMHWVRQAPGKGLEWMGGFDPEDAETIYAQEFQGRVTMTEDTSTDTAYMELSSLRSEDTAVYYCTTGPAVTNRPADYWGPGTLVTVSS VL: QSVLTQPPSVSGAPGQRVTISCTGSSSNIGASYDVHWYQQLPGTAPKLLIYANSNRPSGVPDRFSGSKSGTSASLAITGLQAEDEADYYCQSYDSSLSYSVVFGGGTKLTVL
Key: < 1 pM
